# System: Saccharomyces cerevisiae
# run.description: protein stability index of tFT-peptide fusion (C-terminal peptide) (PSI (0-1 scale)); higher = more stable (slower turnover)
# measurement.conditions: genetic background: cdc34-1; temperature: 37 C
Please note: yes (1) applies when protein stability index is 0.4 or greater, and no (0) applies otherwise.

• SCCGCGFGLLFC = yes (1)
• FFFFFIHFLCYF = no (0)
• FSYFFIFFYMVC = no (0)
• CNIYVLIIIKKY = no (0)
• VVLWWWVVARDL = yes (1)
• GVVCWVVVFGGW = no (0)
• QLGGKVGNCHVV = yes (1)
• QARQLEMYMVVF = yes (1)
• HCNRRNKIYWYS = yes (1)
• SAWGQAFWCQMG = yes (1)
• FFLRFGLFLFTL = yes (1)
• LHFHIYLIISPF = no (0)
• RFCLLFVVAGGV = yes (1)
• VGAYSVVYVVFS = yes (1)
• VMLVISRLLLLF = yes (1)
• SLEACYCFVVLV = no (0)
• GWLSVLVYFLSG = yes (1)
• AITLPMCPLLLR = no (0)
• GWVSCCVWSFLV = no (0)
• ENKGGNQKRRKK = yes (1)
• LCFVCLWGYLGV = no (0)
• RLVIFITRYLIS = no (0)
• LIRVLRVLRHSS = yes (1)
• VWLFCLSRLYLL = no (0)
• VFWVLVSFLFYV = no (0)
• LVSWAWIWIFVF = no (0)
• GGWGVFGVWVWM = yes (1)
• EWVGIFRGVSVF = no (0)
• RLLCLARMRGLH = yes (1)
• GLPGYAWGRSGG = yes (1)
• VIAFFSVLKRYV = yes (1)
• VASYVCIGVVWV = yes (1)
• YVFSPWSCWASV = no (0)
• RSWLCFIVFGLF = no (0)
• GVSFLFVGVSLV = yes (1)
• LLVLPFFSLSRF = yes (1)
• CYTGYMYKLLVG = yes (1)
• LFLFVGCSVRRL = yes (1)
• NAAVQSGGRVAG = yes (1)
• PPPRLPLLSCSQ = yes (1)
• AFAFLLHRFLLV = yes (1)
• GGGVGVAVVLFW = yes (1)
• SLVIVLPALIFL = yes (1)
• PRFWFYLSYSVH = yes (1)
• SLLLLSLCRFVG = yes (1)
• LNALSHCRAICS = yes (1)
• VCVYLVSLPYLA = yes (1)
• PLFLRPLSVPVL = yes (1)
• VFGWWSVVLRVA = no (0)
• YSVFCPLFFIIY = no (0)
• ACALRSLPPRPY = yes (1)
• WGFSVRFVLSVF = no (0)
• SRGKMTIVSNQI = yes (1)
• MALAVRVVTCGA = no (0)
• GMGRVLVEVLLC = no (0)
• RSPIRYPPVVLS = yes (1)
• LLDIYFILLVWF = no (0)
• CLISILLFLCFT = yes (1)
• TIRKCIIKWIKI = yes (1)
• WHFMVFFCFCVD = no (0)
• GGGVWWGVLVLG = no (0)
• LGNVTDVMHRLS = yes (1)
• VCLFRLVVFFPV = no (0)
• PYHAPRPPFSLF = yes (1)
• GGGWAVLLWVQV = no (0)
• LFWTWVLVGVSV = no (0)
• WRAFVFYHHFLD = yes (1)
• RVCWLRAFGFLV = yes (1)
• WFLLILFSAFAV = yes (1)
• WLFRASSFNWVI = yes (1)
• LFPVASLCLART = yes (1)
• GGVVGGVGVYDG = yes (1)
• GTWCLAMARFCA = yes (1)
• PSTLVITVVITK = no (0)
• VFSFWVLCEVSV = no (0)

###

# Tested on: Saccharomyces cerevisiae
# run.description: protein stability index of tFT-peptide fusion (C-terminal peptide) (PSI (0-1 scale)); higher = more stable (slower turnover)
# measurement.conditions: genetic background: wild type; temperature: 30 C
Please note: YES applies when protein stability index is 0.7 or greater, and NO applies otherwise.

- GVVALFLYLLVL: NO
- CMFRCCLRSLVL: NO
- LILHVGWDSQLG: NO
- VFFRGVVVLLRL: NO
- KKKRIERKEKGE: NO
- SARRAALGVWVV: NO
- TPAPLLPRRTPP: YES
- GVWVASCSGAGI: NO
- LALKYLGQLIGA: NO
- GGGEGVPDSASE: NO
- RGALGVVWSGLD: NO
- WEGVGERVGGGA: NO
- RDLLPRWTWIIW: YES
- PEGPTPPSLKLS: NO
- ISLTSYVCGRVL: NO
- ELCAFLFYPFVV: NO
- CRLILLVCNGAG: NO
- ESAGPSIYKLVT: NO
- SMEVRGLKVRSC: NO
- SEEGMGRCSDEE: YES

###

# Test system: Saccharomyces cerevisiae
# run.description: protein stability index of tFT-peptide fusion (C-terminal peptide) (PSI (0-1 scale)); higher = more stable (slower turnover)
# measurement.conditions: genetic background: wild type; temperature: 30 C
Please note: T applies when protein stability index is 0.6 or greater, and F applies otherwise.

• GWGVPGPEPREP = T
• VGVLCWLFLGVG = F
• CDRVIGSRGVTY = T
• VYSAGRAVGLAG = T
• DTTSSPPLPLLV = T
• RVLILCLFFRWS = F
• RFYLLAEDGSST = T
• ILTAVFAVPILP = F
• SSGASTSIVSTL = T
• TTRALEAPARPN = T
• ALLFCVCCGFFF = F
• RARCPGGQIKLH = T
• EYCSSCLADLSP = T
• SLPCPISPPSFL = T
• NEGRRNSRRHGG = T
• CSATVLSNCTFP = T
• SSPSPALLFPAR = T
• GGGRGDWALRGG = T
• KKKKKKKESRSS = T
• FSTIWSLPLSPR = T
• VRMMYSVQVWCG = F
• IHLQGSSYRSLT = T
• LLHHPPPPPSQP = T
• HPIPHDVSGRRN = T
• WVWFGCVLGYRV = F
• VLRFATIKRMYP = T
• PPPSRPSHPPPA = T
• FLRLSPQFASFP = T
• SRLGFPFTGGGR = T
• AITLPMCPLLLR = F
• QTTKEQQKKSYK = T
• KKLGLRLTFLHC = F
• SSSRHHTSLFSP = T
• YVWVPCIRSVLV = F
• SCIVRTLVPCPS = F
• EDCTKNPERDNS = T
• PLPSFPFPRPSS = T
• PSPASPPPPPLP = T
• VDFCLLFLLLLV = F
• IDLIKIKKKTKK = T
• SPWFRSAASTPT = T
• ASGGGPLGNSSR = T
• RSTPRPSSRDSL = T
• VTEGGGGGKGRG = T
• HCNRRNKIYWYS = F
• WGGAGRVWVLGP = T
• GRRAGGTGAPSR = T
• PLPMPHPRSRST = T
• QGREREAGAEVM = T
• ILGVVLRLCNCQ = T
• EVTRMLRVVREI = F

###

# System: Saccharomyces cerevisiae
# run.description: protein stability index of tFT-peptide fusion (C-terminal peptide) (PSI (0-1 scale)); higher = more stable (slower turnover)
# measurement.conditions: genetic background: wild type; temperature: 30 C
Please note: 1 applies when protein stability index is 0.7 or greater, and -1 applies otherwise.

- TYCEKYHVPSIQ [YAE1 C-terminal 12 aa]: -1
- PVTAIALLEARR [YER190C-A C-terminal 12 aa]: -1
- NPKNLINDVRRT [CVM1 C-terminal 12 aa]: -1
- VEVEYLLRRLEE [ARO7 C-terminal 12 aa]: -1
- DNYLKYIKALLL [MSH2 C-terminal 12 aa]: -1
- CLQTESETDIET [LIF1 C-terminal 12 aa]: -1
- PCALYFKDHTAY [HUA2 C-terminal 12 aa]: 1
- KEDPDLRQSYQG [MGS1 C-terminal 12 aa]: -1
- NERGLSSNYQTI [FMP42 C-terminal 12 aa]: -1
- KGKSFILDSSKL [MDH3 C-terminal 12 aa]: 1
- GPSVMCTLYLTF [ARE2 C-terminal 12 aa]: -1
- VARLKDESENVW [COX16 C-terminal 12 aa]: 1
